biological target: human FGFR2b extracellular domain (human, UniProt P21802); assay: ELISA
Sequence (P21802 22-377): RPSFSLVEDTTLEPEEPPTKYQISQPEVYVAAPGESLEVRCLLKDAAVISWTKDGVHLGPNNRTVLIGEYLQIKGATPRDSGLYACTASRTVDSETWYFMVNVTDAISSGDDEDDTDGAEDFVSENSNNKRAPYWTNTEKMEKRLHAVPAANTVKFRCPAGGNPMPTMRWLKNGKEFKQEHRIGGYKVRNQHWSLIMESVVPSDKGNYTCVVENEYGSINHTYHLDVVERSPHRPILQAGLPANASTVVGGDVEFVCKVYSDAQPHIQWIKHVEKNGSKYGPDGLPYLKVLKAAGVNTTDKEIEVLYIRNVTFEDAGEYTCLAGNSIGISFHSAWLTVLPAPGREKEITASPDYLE
Recorded EC50, one value per entry.
Form entry: value (µg/mL) — number only.

Consider the following illustrative entries.
3H9 (antibody, V domains shown) VH: EIQLQQSGAELVKPGASVKMSCKASGYTFSFYNMHWVKRTPGQGLEWIGLIYPDNGDTSYNQKFKGKATLTADTSSSTAYMQLSSLTSEDSAVYYCARGGLDYWGQGTTLTVSS VL: DIVLTQSPASLSVSVGETVTITCRASENIYSNLAWYQQKQGKSPQLLVYAATNLADGVPSRFSGSGSGTQYSLKINSLQSEDFGSYYCQHFWGTPYTFGGGTKLELK = 0.0278
3F11 (antibody, V domains shown) VH: QVQLQQSGAELVKPGASVKMSCKASGYTFAPYNIHWVRQTPGQGLEWIGLIYPDNGDTSYNQKFKAKATLTADKSSSTAYMQLSSLTSEDSAVYYCARGGFDYWGQGTSLTVSS VL: DIVMTQSQKFMSTSVGDRVSVTCKASQNVGTNVAWYQQKPGQSPKALIYSASYRYSGVPDRFTGSGSGTDFTLTISNVQSEDLAEYFCQQHYSTPFTFGSGTKLEIK = 0.0156
3G10 (antibody, V domains shown) VH: EVQLQQSGPELVKPGASVKMSCKASGYTFATYNMHWVKQTTGQGLEWIGAIYPDNGDTFYNRKFKDKATLTADKSSTTAYMQLSSLTSEDSAVYYCARGDFAYWGQGTLVTVSA VL: DVLMTQSPASLSASVGETVTITCGASENIYGALNWYQRKQGKSPQLLIYGATNLADGMSSRFSGSGSGRQYSLKISSLHPDDVATYYCQNVLSTPYTFGGGTKLEMK = 0.0276

In the following, a different binder is considered.
What measured EC50 goes with 3B4 (antibody, V domains shown) VH: EVQLQQSGADLVKPGASVKMSCKASGYTFSYYNMHWVRRTPGQGLEWIGLIYPDNGDTSYNQKFKGKATLTADTSSSTAYMQLSSLTSEDSAVYYCARGGLDYWGQGTTLTVSS VL: DIQMIQSPASMSASVGETVTITCGASENIYGALNWYQRKQGKSPQLLIYGATNLADGMSSRFSGSGSGRQYSLKISSLHPDDVATYYCQNVLSTPYTFGGGTKLEMK ? 0.0166

Every entry's value here was drawn from patent US20260317430.
